- measured target: Cbl-b (Homo sapiens (Human), UniProt Q13191)
- Sequence (Q13191 40-426): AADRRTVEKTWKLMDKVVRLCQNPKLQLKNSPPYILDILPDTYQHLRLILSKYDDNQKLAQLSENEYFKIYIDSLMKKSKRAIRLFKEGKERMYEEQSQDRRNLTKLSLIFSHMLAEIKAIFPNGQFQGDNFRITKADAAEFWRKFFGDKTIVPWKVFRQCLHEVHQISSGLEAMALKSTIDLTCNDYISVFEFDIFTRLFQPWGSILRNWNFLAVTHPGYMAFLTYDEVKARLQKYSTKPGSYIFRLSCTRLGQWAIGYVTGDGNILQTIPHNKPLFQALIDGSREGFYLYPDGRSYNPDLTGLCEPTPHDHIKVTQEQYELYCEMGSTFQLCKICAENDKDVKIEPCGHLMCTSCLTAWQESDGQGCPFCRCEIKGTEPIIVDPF
- run description: Cbl-b LCK Ub TR-FRET assay (Cbl-b Lck HTRF)
- Type: biochemical
- measurement context: ratio C-cbl Lck HTRF IC50 / Cbl-b Lck HTRF IC50
measured endpoint: (fold-selectivity) Cbl-b and C-Cbl Selectivity (x)
Express your answer in x, writing the number without its unit.

Report (fold-selectivity) Cbl-b and C-Cbl Selectivity under test system Cbl-b (Homo sapiens (Human), UniProt Q13191) for COCC1(NCc2cc3c(c(C(F)(F)F)c2)CN(c2cccc([C@]4(c5nncn5C)C[C@H](OC)C4)c2)C3=O)CC1 . 7.4

Specify the recorded (fold-selectivity) Cbl-b and C-Cbl Selectivity for CO[C@H]1C[C@](c2cccc(N3Cc4ccc(CNC5(C)CCC5)cc4C3=O)c2)(c2nncn2C)C1 , system: Cbl-b (Homo sapiens (Human), UniProt Q13191). 5.4

For Cbl-b (Homo sapiens (Human), UniProt Q13191), give (fold-selectivity) Cbl-b and C-Cbl Selectivity of the listed compound: CC[C@H]1C[C@@](c2cccc(N3Cc4c(cc(CNC5(C)CCC5)cc4C(F)(F)F)C3=O)c2)(c2nncn2C)C1 2.4

Consider the compound CO[C@H]1C[C@](c2cccc(N3Cc4c(cc(CNC5(C)CC(F)(F)C5)cc4C(F)(F)F)C3=O)c2)(c2nncn2C)C1 tested on Cbl-b (Homo sapiens (Human), UniProt Q13191); state its (fold-selectivity) Cbl-b and C-Cbl Selectivity. 4.3

Tell me (fold-selectivity) Cbl-b and C-Cbl Selectivity of Cn1cnnc1[C@H](c1cccc(N2Cc3c(cc([C@H](NC4(C)CCC4)C4CCC4)cc3C(F)(F)F)C2=O)c1)C1COC1 (single isomer, unassigned) when tested on Cbl-b (Homo sapiens (Human), UniProt Q13191). 3.1

Please tell me the measured (fold-selectivity) Cbl-b and C-Cbl Selectivity for CO[C@H]1C[C@](c2cccc(N3Cc4c(cc(CNCC(C)(C)C)cc4C(F)(F)F)C3=O)c2)(c2nncn2C)C1 ; system: Cbl-b (Homo sapiens (Human), UniProt Q13191). 4.0
